# assayed_system: PTP EPSILON (Homo sapiens, UniProt P23469)
# Construct: made in house; host or cells: Sf-9 insect cells (pFastBac-G2T); a pGEX 6P-1 construct also existed
# Sequence (P23469 80-393 limits assumed): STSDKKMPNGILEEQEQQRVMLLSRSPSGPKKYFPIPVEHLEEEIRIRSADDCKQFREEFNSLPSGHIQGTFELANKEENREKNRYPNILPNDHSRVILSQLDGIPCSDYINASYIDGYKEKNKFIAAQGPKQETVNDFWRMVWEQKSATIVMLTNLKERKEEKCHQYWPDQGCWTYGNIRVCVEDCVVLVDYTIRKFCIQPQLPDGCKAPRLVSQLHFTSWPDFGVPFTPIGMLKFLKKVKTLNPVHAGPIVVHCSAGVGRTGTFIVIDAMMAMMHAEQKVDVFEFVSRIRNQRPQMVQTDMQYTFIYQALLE
# protocol_description: PTP IC50 assay, fluorescent substrate DiFMUP
# Assay type: biochemical
# condition_label: DiFMUP as substrate, 25° C.; read-out: PTP IC50 Epilson
recorded_metric: IC50

Notebook: pull reported IC50 for PTP EPSILON (Homo sapiens, UniProt P23469), entry CCOC(=O)CNC(=O)C(c1ccc(S(=O)(=O)C(F)(F)F)cc1)N(C(C)=O)C1CC1 (stereo not drawn)
> 100 µM

And what about the compound CCCCNC(=O)C(c1ccc(S(=O)(=O)C(F)(F)F)cc1)N(CCO)C(=O)c1ccccc1 (stereo not drawn) ?
> 100 µM

And what about the compound O=C(O)Cn1c(C(=O)O)cc2cc(N(S(=O)(=O)C(F)(F)F)S(=O)(=O)C(F)(F)F)ccc21 ?
> 100 µM

And what about the compound Cc1cc2cc(NS(=O)(=O)C(F)(F)F)ccc2n1CC(=O)NCc1ccc(C(=O)O)cc1 ?
> 20 µM

And what about the compound Cc1cc2cc(NS(=O)(=O)C(F)(F)F)ccc2n1CC(=O)O ?
> 20 µM

And what about the compound O=[N+]([O-])c1cc(S(=O)(=O)C(F)(F)F)ccc1OCC(CN1CCCCC1)Oc1ccc(S(=O)(=O)C(F)(F)F)cc1[N+](=O)[O-] (stereo not drawn) ?
2.4 µM

And what about the compound O=C(O)c1ccc(NC(=O)c2cc3cc(NS(=O)(=O)C(F)(F)F)ccc3[nH]2)cc1 ?
16.1 µM

And what about the compound O=C(O)c1cc2cc(NS(=O)(=O)C(F)(F)F)ccc2n1CC1CCCCC1 ?
34.7 µM

And what about the compound Cc1cc2cc(NS(=O)(=O)C(F)(F)F)ccc2n1CC(=O)Nc1cccc(C(=O)O)c1 ?
> 20 µM

---

Catalogue of pIC50 values
# assayed_system: PTP SHP2 (Homo sapiens)
# Construct: The catalytic domain was amplified using the following oligonucleotides; made in house; host or cells: Sf-9 insect cells (pFastBac-G2T)
# Sequence (Q06124 247-517 limits assumed): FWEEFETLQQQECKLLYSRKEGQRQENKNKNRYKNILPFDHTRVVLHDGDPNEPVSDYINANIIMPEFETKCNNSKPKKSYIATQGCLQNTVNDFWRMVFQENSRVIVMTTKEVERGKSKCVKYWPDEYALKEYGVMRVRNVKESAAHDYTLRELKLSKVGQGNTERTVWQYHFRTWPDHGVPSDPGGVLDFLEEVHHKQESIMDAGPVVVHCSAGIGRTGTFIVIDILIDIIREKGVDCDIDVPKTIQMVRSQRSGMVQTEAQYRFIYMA
# protocol_description: PTP IC50 assay, fluorescent substrate DiFMUP
# Type: biochemical
# condition_label: DiFMUP as substrate, 25° C.; read-out: PTP IC50 SHP2
pIC50: −log10 of the molar value.

Solved entries:
# molecule, pIC50
rows = [
    ("CCn1c(-c2ccc(C(=O)NCCN3CCCC3)cc2)nc2cc(S(=O)(=O)C(F)(F)F)ccc21 [Example 40]", "< 4.00"),
    ("CCCCNC(=O)C(c1ccc(S(=O)(=O)C(F)(F)F)cc1)N(CCO)C(=O)c1ccccc1 (centres unmarked) [Example 45]", "< 4.00"),
    ("CCn1c(C(=O)O)nc2cc(S(=O)(=O)C(F)(F)F)ccc21 [Example 42]", "< 4.00"),
]

Fill in the blank: the reported pIC50 of CCOC(=O)c1cc2cc(NS(=O)(=O)C(F)(F)F)ccc2n1CC(=O)O [Example 95] is ____.
< 4.70

And what about the molecule O=C(O)Cn1c(C(=O)O)cc2cc(N(S(=O)(=O)C(F)(F)F)S(=O)(=O)C(F)(F)F)ccc21 [Example 100] ?
< 4.70

---

Catalogue of IC50 values
# assayed_system: PTP SIGMA (Homo sapiens, UniProt Q13332)
# Construct: made in house; host or cells: E. coli BL-21 (pGEX 6P-1)
# Sequence (Q13332 1320-1660 limits assumed): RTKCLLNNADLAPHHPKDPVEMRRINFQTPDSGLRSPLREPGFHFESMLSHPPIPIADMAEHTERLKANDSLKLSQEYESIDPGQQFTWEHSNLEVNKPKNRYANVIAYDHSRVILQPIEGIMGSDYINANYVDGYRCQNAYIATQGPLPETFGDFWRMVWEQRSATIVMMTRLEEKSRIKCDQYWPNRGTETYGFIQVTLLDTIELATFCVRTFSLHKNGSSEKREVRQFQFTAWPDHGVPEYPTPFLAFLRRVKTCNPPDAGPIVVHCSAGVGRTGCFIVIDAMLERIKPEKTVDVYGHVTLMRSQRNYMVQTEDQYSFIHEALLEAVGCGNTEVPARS
# protocol_description: PTP IC50 assay, pNPP or FDP as substrate
# Assay type: biochemical
# condition_label: pNPP or FDP as substrate, 25° C.; read-out: PTP IC50 Sigma

# molecule, assayed_system, IC50
measured = [
    ("O=C(NCc1ccc(S(=O)(=O)C(F)(F)F)cc1)c1ccc(S(=O)(=O)C(F)(F)F)cc1 [Example 5]", "PTP SIGMA (Homo sapiens, UniProt Q13332)", "> 100 µM"),
    ("CCOC(=O)COc1ccc(S(=O)(=O)c2ccc(Oc3ccc(S(=O)(=O)C(F)(F)F)cc3[N+](=O)[O-])cc2)cc1 [Example 17]", "PTP SIGMA (Homo sapiens, UniProt Q13332)", "> 100 µM"),
]

Next molecule, IC50 to be filled in.
Fill in the blank: the reported IC50 of O=S(=O)(Nc1ccc(CCc2ccc(NS(=O)(=O)C(F)(F)F)cc2)cc1)C(F)(F)F [Example 66] is ____.
> 100 µM
